# assayedTarget: HLA-B*15:02
# assayComment: IEDB peptide-MHC binding, purified MHC/competitive/fluorescence; filed as Kd, often an IC50 or EC50 that approximates it; bounds were set here for any values at or beyond the usual limits of such assays
# setupConditions: source organism: Clostridium botulinum A str. ATCC 3502
assayReadout: pKd
Scale: pKd equals -log10([C]), with [C] in mol/L.

## Task GET /values?readout=pKd&item= ELYPGDSAH
## Result 6.21

---

# assayedTarget: HLA-B*15:02
# assayComment: IEDB peptide-MHC binding, purified MHC/competitive/fluorescence; filed as Kd, often an IC50 or EC50 that approximates it; bounds were set here for any values at or beyond the usual limits of such assays
# setupConditions: source organism: Vibrio antiquarius
assayReadout: pKd
Scale: pKd equals -log10([C]), with [C] in mol/L.

## Task GET /values?readout=pKd&item= TQHFGWHAF
## Result 7.67

---

# assayedTarget: HLA-A*02:19
# assayComment: IEDB peptide-MHC binding, purified MHC/direct/fluorescence; filed as Kd, often an IC50 or EC50 that approximates it; bounds were set here for any values at or beyond the usual limits of such assays
# setupConditions: source organism: Ebola virus Yambio0403
assayReadout: Kd

## Task GET /values?readout=Kd&item= FRYEFTAPF
## Result ≥ 20 µM

---

# assayedTarget: HLA-A*26:03
# assayComment: IEDB peptide-MHC binding, purified MHC/direct/fluorescence; filed as Kd, often an IC50 or EC50 that approximates it; bounds were set here for any values at or beyond the usual limits of such assays
# setupConditions: source organism: Vibrio vulnificus YJ016
pKd: −log10 of the molar value.
assayReadout: pKd

## Task GET /values?readout=pKd&item= LLRRRPYPL
## Result ≤ 4.70

---

# assayedTarget: HLA-B*08:01
# assayComment: IEDB peptide-MHC binding, purified MHC/direct/fluorescence; filed as Kd, often an IC50 or EC50 that approximates it; bounds were set here for any values at or beyond the usual limits of such assays
# setupConditions: source organism: Corynebacterium efficiens
assayReadout: Kd

## Task GET /values?readout=Kd&item= ITWETPMIW
## Result ≥ 20 µM

---

# assayedTarget: HLA-A*26:01
# assayComment: IEDB peptide-MHC binding, purified MHC/competitive/radioactivity; filed as Kd, often an IC50 or EC50 that approximates it; bounds were set here for any values at or beyond the usual limits of such assays
# setupConditions: source organism: Dengue virus 3 Martinique/1243/1999
assayReadout: Kd
# include the unit after the value

sequenceEntry: HTIENSTAN
Kd: 6.99 µM

Read the next record carefully.
## Task GET /values?readout=Kd&system=HLA-A*26:01&item= EFLDYMPSM
## Result 16.2 µM

---

# assayedTarget: HLA-B*40:01
# assayComment: IEDB peptide-MHC binding, purified MHC/direct/fluorescence; filed as Kd, often an IC50 or EC50 that approximates it; bounds were set here for any values at or beyond the usual limits of such assays
# setupConditions: source organism: Shigella dysenteriae
assayReadout: Kd

## Task GET /values?readout=Kd&item= TTFPVNGGY
## Result ≥ 20 µM

---

# assayedTarget: HLA-B*48:01
# assayComment: IEDB peptide-MHC binding, purified MHC/direct/fluorescence; filed as Kd, often an IC50 or EC50 that approximates it; bounds were set here for any values at or beyond the usual limits of such assays
# setupConditions: source organism: Mycobacterium tuberculosis C
pKd: −log10 of the molar value.
assayReadout: pKd

## Task GET /values?readout=pKd&system=HLA-B*48:01&item= FPRYPLNVL
## Result ≤ 4.70

---

# assayedTarget: HLA-B*57:01
# assayComment: IEDB peptide-MHC binding, purified MHC/competitive/fluorescence; filed as Kd, often an IC50 or EC50 that approximates it; bounds were set here for any values at or beyond the usual limits of such assays
# setupConditions: source organism: Orthohantavirus tulaense
assayReadout: Kd

## Task GET /values?readout=Kd&item= SLMSRVVYK
## Result ≥ 20 µM

---

# assayedTarget: HLA-A*11:01
# assayComment: IEDB peptide-MHC binding, purified MHC/direct/fluorescence; filed as Kd, often an IC50 or EC50 that approximates it; bounds were set here for any values at or beyond the usual limits of such assays
# setupConditions: source organism: Giardia lamblia ATCC 50803
Entries and their Kd

sequenceEntry: VSSKKCTAL
assayedTarget: HLA-A*11:01
Kd: ≥ 20 µM

Read the next record carefully.
## Task GET /values?readout=Kd&item= PPQATAKYL
## Result ≥ 20 µM

---

# assayedTarget: HLA-B*18:01
# assayComment: IEDB peptide-MHC binding, purified MHC/competitive/radioactivity; filed as Kd, often an IC50 or EC50 that approximates it; bounds were set here for any values at or beyond the usual limits of such assays
# setupConditions: source organism: SARS coronavirus Tor2
assayReadout: Kd

Study these solved cases before continuing.
sequenceEntry: TEIEPKLDG
Kd: ≥ 77.5 µM
//
sequenceEntry: KEQYCALSPG
Kd: ≥ 70.5 µM

## Task GET /values?readout=Kd&system=HLA-B*18:01&item= HEGHQTAAF
## Result 4.27 µM

## Task GET /values?readout=Kd&system=HLA-B*18:01&item= SEAREHLKNG
## Result ≥ 70.5 µM

---

# assayedTarget: HLA-B*46:01
# assayComment: IEDB peptide-MHC binding, purified MHC/direct/fluorescence; filed as Kd, often an IC50 or EC50 that approximates it; bounds were set here for any values at or beyond the usual limits of such assays
# setupConditions: source organism: Cryptosporidium parvum Iowa II
assayReadout: Kd

sequenceEntry: DHIPIINTL
Kd: ≥ 20 µM

Read the next record carefully.
## Task GET /values?readout=Kd&system=HLA-B*46:01&item= ILTRLALFF
## Result ≥ 20 µM

---

# assayedTarget: HLA-B*15:02
# assayComment: IEDB peptide-MHC binding, purified MHC/competitive/fluorescence; filed as Kd, often an IC50 or EC50 that approximates it; bounds were set here for any values at or beyond the usual limits of such assays
# setupConditions: source organism: Escherichia coli APEC O1
assayReadout: pKd
Scale: pKd equals -log10([C]), with [C] in mol/L.

## Task GET /values?readout=pKd&system=HLA-B*15:02&item= NLYGWHLPL
## Result 8.02

---

# assayedTarget: HLA-B*44:02
# assayComment: IEDB peptide-MHC binding, purified MHC/direct/fluorescence; filed as Kd, often an IC50 or EC50 that approximates it; bounds were set here for any values at or beyond the usual limits of such assays
# setupConditions: source organism: Zaire ebolavirus
assayReadout: Kd

## Task GET /values?readout=Kd&system=HLA-B*44:02&item= RLAKLTEAI
## Result ≥ 20 µM

---

# assayedTarget: HLA-B*15:01
# assayComment: IEDB peptide-MHC binding, purified MHC/direct/fluorescence; filed as Kd, often an IC50 or EC50 that approximates it; bounds were set here for any values at or beyond the usual limits of such assays
# setupConditions: source organism: Rickettsia prowazekii
assayReadout: pKd
Scale: pKd equals -log10([C]), with [C] in mol/L.

## Task GET /values?readout=pKd&item= NLKLYGAEF
## Result 6.88

---

# assayedTarget: HLA-B*57:01
# assayComment: IEDB peptide-MHC binding, purified MHC/direct/fluorescence; filed as Kd, often an IC50 or EC50 that approximates it; bounds were set here for any values at or beyond the usual limits of such assays
# setupConditions: source organism: Reston ebolavirus - Reston
assayReadout: Kd

## Task GET /values?readout=Kd&item= QLSLRMLSL
## Result ≥ 20 µM

---

# assayedTarget: HLA-A*02:16
# assayComment: IEDB peptide-MHC binding, purified MHC/competitive/fluorescence; filed as Kd, often an IC50 or EC50 that approximates it; bounds were set here for any values at or beyond the usual limits of such assays
# setupConditions: source organism: Bacillus anthracis str. A0488
assayReadout: Kd
# include the unit after the value

## Task GET /values?readout=Kd&system=HLA-A*02:16&item= KQGDVFYTA
## Result 51.4 nM

---

# assayedTarget: HLA-B*15:17
# assayComment: IEDB peptide-MHC binding, purified MHC/competitive/fluorescence; filed as Kd, often an IC50 or EC50 that approximates it; bounds were set here for any values at or beyond the usual limits of such assays
# setupConditions: source organism: Vibrio vulnificus YJ016
assayReadout: Kd

sequenceEntry: SVMSTFFWE
assayedTarget: HLA-B*15:17
reportedMeasurement: ≥ 20 µM

Read the next record carefully.
## Task GET /values?readout=Kd&item= DFISMYFPW
## Result ≥ 20 µM

---

# assayedTarget: HLA-A*69:01
# assayComment: IEDB peptide-MHC binding, purified MHC/direct/fluorescence; filed as Kd, often an IC50 or EC50 that approximates it; bounds were set here for any values at or beyond the usual limits of such assays
# setupConditions: source organism: Camelpox virus CMS
assayReadout: Kd

## Task GET /values?readout=Kd&item= VSEKYTDMY
## Result ≥ 20 µM
